Kindly supply the reported minimal bactericidal concentration (MBC) values for the records listed here.
- Tested on: MRSA KM 97-108
- assay.notes: Bactericidal activity test (MBC, phenol coefficient measuring method)
- Format: cell-based, methicillin-resistant Staphylococcus aureus
- protocol.conditions: 3 min
A bare number is not enough; add the unit after it.

Lookup: Any idea what minimal bactericidal concentration (MBC) was measured for N=C(NCCCCCCNC(=N)NC(=N)Nc1ccc(Cl)cc1)NC(=N)Nc1ccc(Cl)cc1.O=C(O)[C@H](O)[C@@H](O)[C@H](O)[C@H](O)CO.O=C(O)[C@H](O)[C@@H](O)[C@H](O)[C@H](O)CO [Control drug, chlorhexidine gluconate, reference compound] ?
Found: 500 µg/mL

Lookup: minimal bactericidal concentration (MBC) lookup needed for CC(=O)O.CCCCCCCCNC1=NC(C)(C)N=C(NCc2ccc(C)cc2)N1 [compound 58] , thanks.
Found: 50 µg/mL

Lookup: Recorded minimal bactericidal concentration (MBC) for CC(=O)O.CCCCCCCCCNC1=NC(C)(C)N=C(NCc2ccccc2)N1 [compound 48] , please?
Found: 50 µg/mL

Lookup: Reported minimal bactericidal concentration (MBC), compound CC(=O)O.CCCCCCCCNC1=NC(C)(C)N=C(NCCCCCC)N1 [compound 68] : ____
Found: 25 µg/mL
